These measurements were taken from paper PMC4336329.

molecular target: human ether-à-go-go-related gene (hERG) potassium channel (human); assay: primary screen, population patch clamp on CHO cells stably expressing hERG; higher = less effect of the substance
Screen size: about 310,000 compounds; about 14,000 (4.5%) showed an effect of 50% or more. Effects have a minus sign here. The sample as a whole holds a higher share of strong results than the screen did.
measured_endpoint: hERG current change (%, negative = inhibition) at 10uM (%)

> print(dat)
                                   molecule                             system.tested  unit.name  measured
1                 COc1cccc(C(=O)N2CCOCC2)c1  human ether-à-go-go-related gene (hERG) potassium channel (human)          %      20.2
2  CC(C)Cc1nnc(NC(=O)CCC(=O)N2CCN(c3ccccc3F)CC2)s1  human ether-à-go-go-related gene (hERG) potassium channel (human)          %        17
3  COP(=O)(OC)C(NS(=O)(=O)c1ccccc1)C(Cl)(Cl)Cl (stereo not shown)  human ether-à-go-go-related gene (hERG) potassium channel (human)          %      23.8
4  CCN(CC)c1ccc(-c2sc(Nc3ccccc3)n[n+]2-c2ccc(F)cc2)cc1.[Cl-]  human ether-à-go-go-related gene (hERG) potassium channel (human)          %     -71.6

----------
target: human ether-à-go-go-related gene (hERG) potassium channel (human); test: primary screen, population patch clamp on CHO cells stably expressing hERG; higher = less effect of the substance;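 further: peak tail current of the secondary pulse compared with the same well before compound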
The whole screen tested about 310,000 compounds, of which about 14,000 (4.5%) showed an effect of 50% or more. Effects have a minus sign here. For the sample, strong results were picked, then their nearest neighbours and some compounds at random.
hERG current change (%, negative = inhibition) at 10uM listing for selected molecules.
measured_endpoint: hERG current change (%, negative = inhibition) at 10uM (%)

> print(dat)
                                    molecule                             system.tested  measured
 1  CC1CC(Nc2ccccc2N)=CC(=O)O1 (stereo not shown)  human ether-à-go-go-related gene (hERG) potassium channel (human)      11.7
 2   C=CCn1c(SCC(=O)Nc2ccccc2F)nc2ccccc2c1=O  human ether-à-go-go-related gene (hERG) potassium channel (human)      5.56
 3  COc1ccc(C(=O)Nc2cc(-c3nn4c(C)nnc4s3)ccc2C)cc1  human ether-à-go-go-related gene (hERG) potassium channel (human)     -41.8
 4    Clc1ccccc1Cn1c(/C=C/c2ccco2)nc2ccccc21  human ether-à-go-go-related gene (hERG) potassium channel (human)      13.5
 5      COC(=O)Cc1ccc(NC(=S)NCc2ccccc2Cl)cc1  human ether-à-go-go-related gene (hERG) potassium channel (human)     -6.56
 6  O=C(COc1ncnc2ccccc12)N1CCN(S(=O)(=O)c2ccc(Cl)cc2)CC1  human ether-à-go-go-related gene (hERG) potassium channel (human)     -9.26
 7  O=c1c2c(nc3nc(NCc4ccc(Cl)cc4)[nH]n13)CCC2  human ether-à-go-go-related gene (hERG) potassium channel (human)      23.2
 8  C=CCn1c(SCC(=O)Nc2c(C)n(C)n(-c3ccccc3)c2=O)nc2ccccc2c1=O  human ether-à-go-go-related gene (hERG) potassium channel (human)     -32.9
 9  O=C(COC(=O)c1cnccn1)c1cccc([N+](=O)[O-])c1  human ether-à-go-go-related gene (hERG) potassium channel (human)      14.4
10  O=C(NCc1ccccc1)c1ccc2nc(-c3ccco3)c(-c3ccco3)nc2c1  human ether-à-go-go-related gene (hERG) potassium channel (human)     -10.7
11  CCSc1nnc(N2C(=O)CC(c3ccsc3)C3=C2CC(C)(C)CC3=O)s1 (stereo not shown)  human ether-à-go-go-related gene (hERG) potassium channel (human)     -6.24
12  COc1cc(NC(=O)CN(c2ccc(C)cc2)S(=O)(=O)c2c(C)noc2C)cc(OC)c1  human ether-à-go-go-related gene (hERG) potassium channel (human)      16.3
13  CC(C)(C)c1cc(NC(=O)CSc2nnc(NCc3ccccc3)s2)n(-c2ccccc2)n1  human ether-à-go-go-related gene (hERG) potassium channel (human)     -50.1
14  CCCC(=O)NC(c1ccc(Cl)cc1Cl)c1ccc2cccnc2c1O (stereo not shown)  human ether-à-go-go-related gene (hERG) potassium channel (human)     0.094
15       CCOC(=O)c1cn2nc(Oc3ccc(C)cc3)ccc2n1  human ether-à-go-go-related gene (hERG) potassium channel (human)      1.97
16  O=C(O)C(=O)O.c1ccc(-c2ccccc2OCCCN2CCCCC2)cc1  human ether-à-go-go-related gene (hERG) potassium channel (human)     -74.6

----------
Item-by-item account of hERG current change (%, negative = inhibition) at 10uM
biological target: human ether-à-go-go-related gene (hERG) potassium channel (human, UniProt Q12809); test: primary screen, population patch clamp on CHO cells stably expressing hERG; higher = less effect of the substance;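 further: peak tail current of the secondary pulse compared with the same well before compound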
Sequence (Q12809 whole entry, looked up): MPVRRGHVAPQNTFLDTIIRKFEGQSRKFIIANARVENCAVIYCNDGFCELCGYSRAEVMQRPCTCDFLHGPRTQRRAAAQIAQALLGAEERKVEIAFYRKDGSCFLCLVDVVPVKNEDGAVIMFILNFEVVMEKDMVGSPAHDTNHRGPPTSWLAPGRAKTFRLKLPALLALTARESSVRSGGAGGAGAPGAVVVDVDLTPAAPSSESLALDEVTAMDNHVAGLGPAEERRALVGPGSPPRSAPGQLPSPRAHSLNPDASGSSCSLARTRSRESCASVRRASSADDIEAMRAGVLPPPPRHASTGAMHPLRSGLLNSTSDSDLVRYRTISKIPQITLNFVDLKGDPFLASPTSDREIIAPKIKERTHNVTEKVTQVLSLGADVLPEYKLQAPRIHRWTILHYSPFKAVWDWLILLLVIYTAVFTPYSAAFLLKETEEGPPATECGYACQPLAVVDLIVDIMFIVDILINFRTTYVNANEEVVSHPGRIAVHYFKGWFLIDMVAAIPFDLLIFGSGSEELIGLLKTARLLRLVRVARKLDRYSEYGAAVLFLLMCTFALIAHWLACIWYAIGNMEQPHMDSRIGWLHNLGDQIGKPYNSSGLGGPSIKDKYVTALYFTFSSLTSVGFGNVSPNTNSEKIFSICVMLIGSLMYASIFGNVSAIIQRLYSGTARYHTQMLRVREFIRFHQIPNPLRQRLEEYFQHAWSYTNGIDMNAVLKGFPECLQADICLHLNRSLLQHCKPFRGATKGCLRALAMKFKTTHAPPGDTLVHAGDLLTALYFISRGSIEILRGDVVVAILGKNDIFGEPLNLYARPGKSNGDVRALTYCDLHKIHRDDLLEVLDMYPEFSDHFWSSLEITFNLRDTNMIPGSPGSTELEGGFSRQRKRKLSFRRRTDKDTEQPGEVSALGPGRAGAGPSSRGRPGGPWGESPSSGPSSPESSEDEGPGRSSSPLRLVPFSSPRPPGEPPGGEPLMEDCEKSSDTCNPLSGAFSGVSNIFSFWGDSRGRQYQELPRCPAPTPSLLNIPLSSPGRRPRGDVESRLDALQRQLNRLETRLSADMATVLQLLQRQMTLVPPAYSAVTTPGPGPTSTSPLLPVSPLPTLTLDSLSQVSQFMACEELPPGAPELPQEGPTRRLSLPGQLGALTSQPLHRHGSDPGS
Among all 310,000 compounds or so, about 14,000 (4.5%) showed an effect of 50% or more. The effect is printed as a negative number. The full list was thinned out, with strong results kept by preference.
measured_endpoint: hERG current change (%, negative = inhibition) at 10uM (%)

> print(dat)
                               query.smiles  measured
1  COc1ccc(C(=O)N2CCN(c3ccccn3)CC2)cc1[N+](=O)[O-]     -14.9
2  COc1ccc(C(=O)N2CCN(c3ncccn3)CC2)cc1[N+](=O)[O-]     -2.35
3  O=C(c1nc2ccccn2c1CN1CCC(Cc2ccccc2)CC1)N1CCCC1     -70.7
4  COC(=O)c1ccccc1NC(=O)CN1CCC(n2nnc3cc(F)ccc32)CC1     -14.3

----------
Target: human ether-à-go-go-related gene (hERG) potassium channel (human, UniProt Q12809);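 further: peak tail current of the secondary pulse compared with the same well before compound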
Assay: primary screen, population patch clamp on CHO cells stably expressing hERG; higher = less effect of the substance
Procedure: Briefly, Chinese hamster ovary (CHO) cells stably expressing the hERG channel were dislodged from tissue culture flasks and dispensed into PPC plates. […] During the recording, background leak currents were estimated by a 100 ms step to -80 mV from an initial holding potential of -70 mV and subtracted from the subsequent current measurement. The campaign was conducted in two phases using slight differences in recording protocol. […]
In all, about 310,000 compounds went through this assay and about 14,000 (4.5%) showed an effect of 50% or more. Effects have a minus sign here. Many of the other results were omitted from the sample, so strong results are more common in it than they were.
Entries annotated with measured hERG current change (%, negative = inhibition) at 10uM
measured_endpoint: hERG current change (%, negative = inhibition) at 10uM (%)

> print(dat)
                               query.smiles  unit.name  measured
1  CC(=O)NN1C(=O)/C(=C2/Sc3ccc(Cl)cc3N2C)SC1=S          %      10.6
2      COc1cccc(-c2sc3ccc(OC)cc3c2C#CCCO)c1          %     -7.87
3          COC(=O)/C(=C/c1ccc(F)cc1)NC(C)=O          %    -0.211

----------
target: human ether-à-go-go-related gene (hERG) potassium channel (human); assay: primary screen, population patch clamp on CHO cells stably expressing hERG; higher = less effect of the substance;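 further: peak tail current of the secondary pulse compared with the same well before compound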
Hit rate of the full screen: of about 310,000 compounds, about 14,000 (4.5%) showed an effect of 50% or more. Effects have a minus sign here. This is one part of a sample in which strong results are shown more often than they occur.
measured_endpoint: hERG current change (%, negative = inhibition) at 10uM (%)

> print(dat)
                                    compound  measured
 1  Cc1ccc(S(=O)(=O)Cn2nnnc2C(C(C)C)N2CCC(C(N)=O)CC2)cc1 (stereo not drawn)        19
 2  CCOC(=O)c1cccc(NC(=O)CSc2nnc(COc3ccc(Cl)cc3)o2)c1      16.3
 3  Cc1ccc(S(=O)(=O)N2CCC(=O)N(C(COCc3ccccc3)C(C)C)CC2)cc1 (stereo not drawn)     -23.2
 4  Cc1sc(NC(=O)c2sc3nc4c(C)cccc4cc3c2N)c(C#N)c1C      8.29
 5  CC1(C)CC(=O)C2=C(C1)OC(N)=C(C#N)C21CCN(C(=O)OCc2ccccc2)CC1     -2.49
 6  CC(=O)Nc1cccc(NC(=O)CSc2ccc(-c3ccco3)nn2)c1     0.763
 7  CCN(CC)P(=O)(c1ccccc1)c1c(C)nc2ccccn12 (stereo not drawn)     -3.24
 8     COc1ccc(NC(=O)c2ccc3ncsc3c2)c2ccccc12      4.56
 9  COC(=O)CSC1=C(C#N)C(c2ccc(Cl)cc2)C(C(=O)OC)C(=O)N1 (stereo not drawn)     0.571
10  CCCn1c(=O)[nH]c(=O)c2c1nc(-c1ccc(C(F)(F)F)cc1)n2CCOC     -4.45
11  N#CC1=C(N)OC2=C(C(=O)CCC2)C12CCN(C(=O)OCc1ccccc1)CC2     -55.9
12  Cc1ccc(C(c2nnnn2CS(=O)(=O)c2ccc(C)cc2)N2CCC(C(N)=O)CC2)cc1 (stereo not drawn)     -55.1
13  CCOC(=O)N1CCC2(CC1)C(C#N)=C(N)OC1=C2C(=O)CCC1    -0.515
14  Cc1ccc(S(=O)(=O)N2CCC(=O)N(CCOC(=O)Nc3cccc(Cl)c3)CC2)cc1     -65.7
15       CCN(CC)C(=O)c1[nH]cnc1C(=O)Nc1ccon1     0.396
16            COCCCNC(=O)c1ccccc1NS(C)(=O)=O      4.15
17   COc1ccc(NC(=O)/C(C#N)=C\c2ccc(Br)o2)cc1      4.52
18  Cc1ccc(NC(=O)OCCN2CCN(S(=O)(=O)c3ccc(C)cc3)CCC2=O)cc1     -18.5
19        C/C(=N\NC(=O)c1ccc(Br)cc1)c1cccnc1      5.22
20       O=C(N/N=C/C=C/c1ccccc1)c1cccc(Br)c1       5.3
21   CCOC(=O)CNC(=O)C(=O)c1c(O)[nH]c2ccccc12      9.92
22  COc1ccccc1NC(=O)c1cc2c(=O)n(C)c3ccccc3c2n1C      1.19
23  Cc1ccc(S(=O)(=O)N2CCC(=O)N(C(COCc3cccc(Cl)c3)C(C)C)CC2)cc1 (stereo not drawn)     -35.2
24  O=C(CN(C(=O)CCC(=O)Nc1ccccn1)c1ccc2c(c1)OCO2)NCc1ccc(F)cc1      9.42
25  Cc1ccc(S(=O)(=O)Cn2nnnc2C(c2ccc(F)cc2)N2CCC(C(N)=O)CC2)cc1 (stereo not drawn)     -44.1
26  O=C(CSc1nnc(-c2ccc(OC(F)F)cc2)o1)N1CCOCC1       -57
27      O=C(CSc1ccc(-c2ccco2)nn1)c1ccc(F)cc1     -25.8
28  CN(C)CCCO/N=C(\c1ccccc1)c1ccncc1.O=C([O-])C(=O)[O-]      5.25
29  Cc1ccc(NC(=S)N/N=C/c2ccc([N+](=O)[O-])s2)cc1     -3.04
30               O=C(OCc1ccc(Br)cc1)c1cccnc1     -5.96
31                O=C(Oc1ccc(Br)cc1)c1cccnc1       4.3
32  O=C(NCCc1c[nH]c2ccccc12)OCCSS(=O)(=O)[O-].[Na+]      9.49
33  CCOc1ncccc1C(=O)Nc1ccc(S(=O)(=O)Nc2nc(C)cc(C)n2)cc1      2.16
